Origin of measurements: PubChem BioAssay AID2060489

system: 922993-354-T-J3-PDC complex spheroids, viability; assay: Anticancer human tumor 922993-354-T-J3-PDC patient-derived endometrial carcinoma cell line growth inhibition [GQUAD]; details: second compound 0.1 µM; first compound 0.316 µM; hits give low values;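 note: spheroids exposed to compounds for seven days; 100% = DMSO vehicle control viability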
readoutName: viability, T/C (%)
All answers are understood in %, so give the number only.

Take a look at these entries with their results.
- compound: "O=c1[nH]cc(F)c(=O)[nH]1 + Cc1cnc(CNC(=O)c2c(=O)c3ccc(N4CCCN(C)CC4)nc3n3c2sc2ccccc23)cn1"
  system: "922993-354-T-J3-PDC complex spheroids, viability"
  valueUnits: "%"
  recordedMeasurement: 49.7
- compound: "Cc1cccc(N(C)C(=O)C2C(O)CCN2c2nc(C)cc(C(F)(F)F)c2C#N)c1 (stereo not given) + Cc1cnc(CNC(=O)c2c(=O)c3ccc(N4CCCN(C)CC4)nc3n3c2sc2ccccc23)cn1"
  system: "922993-354-T-J3-PDC complex spheroids, viability"
  valueUnits: "%"
  recordedMeasurement: 59
- compound: "COc1cccc2c1C(=O)c1c(O)c3c(c(O)c1C2=O)CC(O)(C(=O)CO)CC3OC1CC(N)C(O)C(C)O1 (stereo not given) + Cc1[nH]c2ccc(F)cc2c1-c1nc2c3cccnc3c3ncccc3c2[nH]1"
  system: "922993-354-T-J3-PDC complex spheroids, viability"
  valueUnits: "%"
  recordedMeasurement: 86.7
- compound: "CCc1c2c(nc3ccc(O)cc13)-c1cc3c(c(=O)n1C2)COC(=O)[C@]3(O)CC + CN(C)c1ccc(Nc2c3ccc(NC(=O)CCN4CCCC4)cc3nc3cc(NC(=O)CCN4CCCC4)ccc23)cc1"
  system: "922993-354-T-J3-PDC complex spheroids, viability"
  valueUnits: "%"
  recordedMeasurement: 16.8

Problem: State the recorded viability, T/C for this entry: C=CC(=O)N1CCN(c2nc(=O)n(-c3c(C)ccnc3C(C)C)c3nc(-c4c(O)cccc4F)c(F)cc23)C(C)C1 (stereo not given) + Cc1[nH]c2ccc(F)cc2c1-c1nc2c3cccnc3c3ncccc3c2[nH]1
Solution: 99.3
